System: Daudi
test_summary: Cell proliferation IC50 (Cell Titer Glo)
Assay type: cell-based
recorded_conditions: Homo sapiens, 96 h, Leukemia, BRAF V600V Wild type, 4 days continuous exposure, read-out: IC50 cell proliferation
pIC50: −log10 of the molar value.
property: pIC50

Input line: Give the value of pIC50 reported for the following: O=C(Nc1ccc2[nH]nc(-c3ccncc3)c2c1)C1CCN(CC(=O)N2CCN(c3ccc(-c4ncccn4)cc3)CC2)C1 (stereo not shown) [cpd. a]
Output line: < 5.52

* * *

Tested on: SNU-16
test_summary: Cell proliferation IC50 (Cell Titer Glo)
Assay type: cell-based
recorded_conditions: Homo sapiens, SNU-16, 96 h, read-out: IC50 cell proliferation
property: IC50 (nM)
// return numeric value only (unit: nM, not printed)

Input line: Give the value of IC50 reported for the following: O=C(NOC[C@H](O)CO)c1ccc(F)c(F)c1Nc1ccc(I)cc1F
Output line: 1000

* * *

Test system: WM-115
test_summary: Cell proliferation IC50 (Cell Titer Glo)
Assay type: cell-based, human
recorded_conditions: Homo sapiens, WM-115, 96 h, read-out: IC50 cell proliferation, WM-115, Melanoma, BRAF V600D Heterozygous; 4 days continuous exposure
property: IC50

Input line: Give the value of IC50 reported for the following: O=C(NOC[C@H](O)CO)c1ccc(F)c(F)c1Nc1ccc(I)cc1F
Output line: < 10 nM

* * *

Test system: UACC-62
test_summary: Cell proliferation IC50 (Cell Titer Glo)
Format: cell-based
recorded_conditions: Homo sapiens, 96 h; UACC-62, Melanoma, BRAF V600E Homozygous; 4 days continuous exposure; read-out: IC50 cell proliferation
property: IC50 (µM)
// return numeric value only (unit: µM, not printed)

Input line: Give the value of IC50 reported for the following: O=C(Nc1ccc2[nH]nc(-c3ccncc3)c2c1)C1CCN(CC(=O)N2CCN(c3ccc(-c4ncccn4)cc3)CC2)C1 (stereo not shown)
Output line: 0.03

* * *

Tested on: BxPc-3
test_summary: Cell proliferation IC50 (Cell Titer Glo)
Assay type: cell-based
recorded_conditions: Homo sapiens, BXPC-3, 96 h, read-out: IC50 cell proliferation
property: pIC50
API: returns pIC50 as number; meaning -log10 of concentration in mol/L.

Input line: Give the value of pIC50 reported for the following: O=C(NOC[C@H](O)CO)c1ccc(F)c(F)c1Nc1ccc(I)cc1F
Output line: 6.92

* * *

Test system: WM-115
test_summary: Cell proliferation IC50 (Cell Titer Glo)
Format: cell-based, human
recorded_conditions: WM-115, Melanoma, BRAF V600D Heterozygous; 4 days continuous exposure; read-out: IC50 cell proliferation
property: IC50 (nM)
// return numeric value only (unit: nM, not printed)

Input line: Give the value of IC50 reported for the following: O=C(Nc1ccc2[nH]nc(-c3ccncc3)c2c1)C1CCN(CC(=O)N2CCN(c3ccc(-c4ncccn4)cc3)CC2)C1 (stereo not shown) [cpd. a]
Output line: 60
